tested on: AR mRNA; test: AR mRNA in LnCaP cells by free uptake (hAR_LTS00943); format: cell-based, human; details: 10 μM, 24 hrs
Oligonucleotides are written 5' to 3', each unit as a sugar letter and its base; * is a phosphorothioate linkage, no mark a phosphodiester; rarer units and linkages stand in square brackets, end groups in braces. Plain capitals give the bases only. e = 2'-O-(2-methoxyethyl) (MOE); l = locked nucleic acid (LNA); k = constrained ethyl (cEt); [5mC] = 5-methylcytosine; d = 2'-deoxy (DNA)
Tick Y if Percent inhibition of AR mRNA is 70% or greater. Tick N if Percent inhibition of AR mRNA is less than 70%.

569213 (antisense kT*kG*kA*dT*dT*dT*dA*dA*dT*dG*dG*dT*kT*kG*k[5mC]*eA) [compound 569213]    Y
583918 (kA*kG*kT*d[5mC]*dG*d[5mC]*dG*dA*d[5mC]*dT*d[5mC]*dT*dG*kG*kT*kA) [compound 583918]    N

Q: Say whether 554221 (ACCAAGTTTCTTCAGC; sugars from the 5' end l3 d10 l3, all phosphorothioate, methylation of C not given here) [compound 554221] shows Percent inhibition of AR mRNA of 70% or more.
Ans: N

Q: Say whether 584149 (kG*kT*k[5mC]*dA*dA*dT*dA*dT*d[5mC]*dA*dA*dA*dG*k[5mC]*kA*k[5mC]) [compound 584149] shows Percent inhibition of AR mRNA of 70% or more.
Ans: N

###

Recorded HCT for the following substances
settings: cynomolgus monkey, in vivo, sc, 40 mg/kg
Kindly provide the numeric value in % only, without the unit symbol.

ISIS 584468: antisense compound targeted to human AR (CATTGTACTATGCCAG; 3-10-3 (S)-cEt gapmer, further chemistry not given here)    45
GATTTAATGGTTGCAA (cEt gapmer chemistry, further chemistry not given here) [ISIS 586124]    45
TGATTTAATGGTTGCA [ISIS 569221] (cEt/MOE gapmer chemistry, further chemistry not given here)    45
TTGATTTAATGGTTGC [ISIS 560131] (MOE and (S)-cEt gapmer chemistry, further chemistry not given here)    44
TTGATTTAATGGTTGC [ISIS 579671] (cEt/MOE gapmer chemistry, further chemistry not given here)    42

Next item in the queue.
The recorded HCT for ISIS 584149: antisense compound targeted to human AR (GTCAATATCAAAGCAC; 3-10-3 (S)-cEt gapmer, further chemistry not given here) is 45

###

Recorded % inhibition for the following substances
system: AR mRNA; test: Antisense inhibition of human AR in HuVEC cells, single concentration (electroporation, qRT-PCR RTS3559); format: cell-based; conditions: 500 nM ASO, ~24 h, Table 18
Oligonucleotides are written 5' to 3', each unit as a sugar letter and its base; * is a phosphorothioate linkage, no mark a phosphodiester; rarer units and linkages stand in square brackets, end groups in braces. Plain capitals give the bases only. k = constrained ethyl (cEt); [5mC] = 5-methylcytosine; d = 2'-deoxy (DNA)
Kindly provide the numeric value in % only, without the unit symbol.

Worked cases, answers included:
583714 (antisense kT*k[5mC]*k[5mC]*dA*dT*d[5mC]*d[5mC]*dT*dT*dG*dA*dG*d[5mC]*kT*kT*kG) [compound 583714]    36
583693 (antisense k[5mC]*kT*kG*dT*dG*dA*dT*dG*dA*dT*dG*d[5mC]*dG*kG*kT*kA) [compound 583693]    36

The recorded % inhibition for 583727 (antisense kG*kA*kT*dT*d[5mC]*dT*dG*dG*dA*dA*dA*dG*d[5mC]*kT*k[5mC]*k[5mC]) [compound 583727] is 40
